# target-of-assay: chimeric BTLA of humanised-BTLA mice (human extracellular region, murine transmembrane and signaling … (human; mouse, UniProt Q7TSA3 184-306, limits assumed)
# Sequence (Q7TSA3 other isoform, or with tags, fused parts or gaps mutant limits assumed): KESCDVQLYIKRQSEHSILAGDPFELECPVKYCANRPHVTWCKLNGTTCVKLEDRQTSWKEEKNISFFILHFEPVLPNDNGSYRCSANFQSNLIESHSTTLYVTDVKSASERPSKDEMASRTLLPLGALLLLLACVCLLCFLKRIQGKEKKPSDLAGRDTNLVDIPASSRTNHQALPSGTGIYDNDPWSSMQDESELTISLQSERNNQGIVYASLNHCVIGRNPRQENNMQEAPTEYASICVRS
# protocol-summary: cell-based or functional assay
Known AntiCD3/CD28 (CD4 T cell proliferation) repeat 1, % inhibition of a selection of binders
Numbers only; they are read as %.

Example entries begin here.
The binder identified as 8C4 (antibody, IgG1, V domains shown) VH: DVQLQESGPGMVKPSQSLSLTCTVTGYSITSGYDWHWIRHFPGNKLEWMGYISYSGSTNYNPSLKSRISITHDTSKNHFFLKLNSVTTEDTATYYCARGTPVVAEDYFDYWGQGTTLTVSS VL: QAVVTQESALSTSPGETVTLTCRSSTGAVTTSNYANWVQEKPDHLFTGLIGATNNRAPGVPARFSGSLIGDKAALTITGAQTEDEAIYFCALWYSNHLVFGGGTKLTVLG registered its AntiCD3/CD28 (CD4 T cell proliferation) repeat 1, % inhibition at 12

The binder identified as 14D4 (antibody, IgG1, V domains shown) VH: QVQLQQPGAELVKPRASVKLSCKASGYTFTSYWMHWVKQRPGQGLEWIGMIHPNNGIPNYNEKFKSKATLTVDKSSTTAYMQLSSLTSEDSAVYHCAREGYYGSEGYFDVWGTGTTVTVSS VL: QIVLTQSPAIMSASPGEKVTMTCSASSSISYIHWYQQKPGTSPKRWIYDTSKLASGVPARFSGSGSGTSYSLTISSMEAEDAATYYCHQRSTYPYTFGGGTKLEIK registered its AntiCD3/CD28 (CD4 T cell proliferation) repeat 1, % inhibition at 24

// next item, AntiCD3/CD28 (CD4 T cell proliferation) repeat 1, % inhibition requested
The binder identified as 15B6 (antibody, IgG1, V domains shown) VH: QVQLQQPGAELVKPGASVKLSCKASGYTFTSYWMHWVKQRPGQGLEWIGMIHPNSGSTNYNEKFKSKATLTVDKSSSTAYMQLSSLTSEDSAVYYCARKRGGLGDYWGQGTSVTVSS VL: DIVLTQSPASLAVSLGQRATISCRASKSVSTSGYSYMHWYQQKPGQPPKLLIYLASNLESGVPARFSGSGSGTDFTLNIHPVEEEDAATYYCQHSRELPYTFGGGTKLEIK registered its AntiCD3/CD28 (CD4 T cell proliferation) repeat 1, % inhibition at 9
